B1: library; a variant is named by its letters at N, in order (parent)
chain: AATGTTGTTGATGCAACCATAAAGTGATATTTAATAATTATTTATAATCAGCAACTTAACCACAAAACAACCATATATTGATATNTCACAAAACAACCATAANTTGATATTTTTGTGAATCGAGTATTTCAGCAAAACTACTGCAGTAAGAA

variants of: B1; experiment: relative integration efficiency (T-RL orientation) vs wild-type transposon end (log2 (normalized fold change)); transposon end mutated: left end; higher = more efficient transposition; settings: with VchCAST RNA-guided transposition machinery (E. coli BL21(DE3) host, lacZ target)
Class definitions on relative integration efficiency (log2): lo (below -0.8), med (-0.8 to below -0.3), hi (-0.3 or more)

[
  {
    "MUTATION CODE": "TA A23G G24T A33T T76A T78A T84A C87A A96C T110A T113A",
    "DISCRETE LABEL": "hi"
  },
  {
    "MUTATION CODE": "CG A33T A34T T35A A36T",
    "DISCRETE LABEL": "hi"
  },
  {
    "MUTATION CODE": "CG A1T",
    "DISCRETE LABEL": "hi"
  },
  {
    "MUTATION CODE": "CG C61A A62C C63A A64C",
    "DISCRETE LABEL": "hi"
  },
  {
    "MUTATION CODE": "CG T74G A75C",
    "DISCRETE LABEL": "lo"
  },
  {
    "MUTATION CODE": "TA A16C G24T T32G A33C A70C T76A T84A C87A T104A T110A T113A",
    "DISCRETE LABEL": "lo"
  },
  {
    "MUTATION CODE": "CG T110G T111G",
    "DISCRETE LABEL": "lo"
  },
  {
    "MUTATION CODE": "TA G24A T30A A70C T76A T86G T104A T110A T113A",
    "DISCRETE LABEL": "med"
  },
  {
    "MUTATION CODE": "CG G7C T8A",
    "DISCRETE LABEL": "lo"
  },
  {
    "MUTATION CODE": "CG A92G",
    "DISCRETE LABEL": "med"
  },
  {
    "MUTATION CODE": "TA A22T G24T T31C A33C T76A T78G C87A T104A T110A T113A",
    "DISCRETE LABEL": "med"
  },
  {
    "MUTATION CODE": "CG T113A",
    "DISCRETE LABEL": "hi"
  },
  {
    "MUTATION CODE": "CG T110G T111G T112G T113G",
    "DISCRETE LABEL": "lo"
  },
  {
    "MUTATION CODE": "TG G24A T30A T76A A77G C87T",
    "DISCRETE LABEL": "hi"
  },
  {
    "MUTATION CODE": "CG A109C T110G T111G T112G",
    "DISCRETE LABEL": "lo"
  },
  {
    "MUTATION CODE": "CG A109C",
    "DISCRETE LABEL": "hi"
  },
  {
    "MUTATION CODE": "TG A16C G24T T32G A33C A70C T76A T86G",
    "DISCRETE LABEL": "med"
  },
  {
    "MUTATION CODE": "CG A1C A2C",
    "DISCRETE LABEL": "hi"
  },
  {
    "MUTATION CODE": "CG A36G T42C A62G A65G A66C",
    "DISCRETE LABEL": "med"
  },
  {
    "MUTATION CODE": "TG A23G G24T A33T A70C T76A T84A C87A",
    "DISCRETE LABEL": "hi"
  },
  {
    "MUTATION CODE": "CG A1T A2T T3A G4T T5A",
    "DISCRETE LABEL": "med"
  },
  {
    "MUTATION CODE": "CG T6G G7T T8G T9G",
    "DISCRETE LABEL": "lo"
  },
  {
    "MUTATION CODE": "CG A27C A81C A107C",
    "DISCRETE LABEL": "lo"
  },
  {
    "MUTATION CODE": "CG A69T A70T C71G C72G",
    "DISCRETE LABEL": "lo"
  },
  {
    "MUTATION CODE": "TA A23G G24T A33T T76A T78G C87A T104G T113A",
    "DISCRETE LABEL": "hi"
  },
  {
    "MUTATION CODE": "CG C72G A73T",
    "DISCRETE LABEL": "lo"
  },
  {
    "MUTATION CODE": "CG T74A",
    "DISCRETE LABEL": "med"
  },
  {
    "MUTATION CODE": "CG C49A A50C",
    "DISCRETE LABEL": "med"
  },
  {
    "MUTATION CODE": "CG T20G A21C",
    "DISCRETE LABEL": "lo"
  },
  {
    "MUTATION CODE": "CG A47G",
    "DISCRETE LABEL": "hi"
  },
  {
    "MUTATION CODE": "CG A77C T78G T79G G80T",
    "DISCRETE LABEL": "lo"
  },
  {
    "MUTATION CODE": "CG A107C T108G A109C T110G",
    "DISCRETE LABEL": "lo"
  },
  {
    "MUTATION CODE": "CG T111C",
    "DISCRETE LABEL": "hi"
  },
  {
    "MUTATION CODE": "CG A90C A91C A92C A93C",
    "DISCRETE LABEL": "hi"
  },
  {
    "MUTATION CODE": "CG A59G",
    "DISCRETE LABEL": "hi"
  },
  {
    "MUTATION CODE": "CG T35G",
    "DISCRETE LABEL": "hi"
  },
  {
    "MUTATION CODE": "CG A16C A70C A96C",
    "DISCRETE LABEL": "med"
  },
  {
    "MUTATION CODE": "CG A34C A36G T38C T42C A62G A65G A66C",
    "DISCRETE LABEL": "med"
  }
]
